Tested on: HL-60(TB) leukemia
Assay comment: NCI-60 one-dose screen, 48 h
Experimental parameters: 10 µM unless noted
This is part of a sample that, as a whole, favours compounds with a hit. Of some 83,000 tested, about 20% had one in any assay. Active and inactive are the calls of the source. Rule for the calls: active = growth percent below 10; inactive = the rest.
Please reply with one of these outcomes: label 1 = active, label 0 = inactive

1. O=C(Cc1ccccc1)C(F)(F)F = label 0
2. Nc1cc2c([nH]c[n+]2CC#CCCl)c(SCC#CCCl)n1 = label 1
3. OC1Cc2ccccc2C1 = label 0
4. c1cc[n+](Cc2ccnc3ccccc23)cc1 = label 0

Enquiry: Record request — test call for `C=C(C)[C@@H]1CC[C@]2(C)[C@H](CC=C3[C@@H]4CC(C)(C)CC[C@]4(CO)CC[C@]32C)[C@@]1(C)CCCN`
Return: label 1

Enquiry: In this assay, the call recorded for CC1C(/C=N/Nc2ccccc2)C(C#N)(C#N)C1(C#N)C#N (stereo not drawn) was what?
Return: label 0

Enquiry: // param item: `Clc1nc2ccccc2cc1Cn1nnc(Cc2ccccc2)n1` ; yields the recorded call
Return: label 0

====

Test system: M14 melanoma
Assay comment: NCI-60 one-dose screen, 48 h (100 = growth as untreated, 0 = no growth, -100 = all killed)
Experimental parameters: 10 µM unless noted
Compounds without any hit were thinned out: in the full panel of roughly 83,000, 20% have a hit.
Give measured growth for each item. Keep answers brief.
Answers are plain numbers, in %.

1) COc1cc(CNCCc2ccc(Cl)cc2)cc(OC)c1O = 64.8
2) [Br][Pb]([c]1ccccc1)([c]1ccccc1)[c]1ccccc1 = -100
3) ClCCN(CCCl)c1nc(Cl)c(C2CC(c3ccccc3)=NN2c2ccccc2)s1 (stereo unspecified) = 92.4

Each compound below has a recorded value; state its growth.
1. N#[N+]c1cnc([O-])[nH]c1=O
2. O=C(O)c1cccc(CCl)c1
3. CC(C)Nc1ccc(Nc2ccccc2)cc1
4. O=C(N/N=C/c1ccc(N(CCCl)CCCl)cc1)c1cc(=O)[nH]c(=O)[nH]1

Return:
1: 108; 2: 95.8; 3: 47.7; 4: 103

Batch request: growth for each of the following compounds.
1. CC(C)N=C(NC(C)C)N1CC1
2. CC(C)CCC[C@@H](C)[C@H]1CC[C@H]2[C@@H]3CC=C4C[C@@H](OC(=O)Cc5ccc(N(CCCl)CCCl)cc5)CC[C@]4(C)[C@H]3CC[C@]12C

Return:
1: 128; 2: 108

Dear colleague, could you please provide growth for the compounds listed below?
1. Nc1cccc(CC(=O)Nc2ccc(S(=O)(=O)F)cc2)c1
2. Nc1ncnc2c1c(C(=O)NO)cn2C1OC(CO)C(O)C1O (stereo unspecified)

Return:
90.7
-53.8

====

System: HL-60(TB) leukemia
Assay comment: NCI-60 one-dose screen, 48 h (100 = growth as untreated, 0 = no growth, -100 = all killed)
Experimental parameters: 10 µM unless noted
This is part of a sample that, as a whole, favours compounds with a hit. Of some 83,000 tested, about 20% had one in any assay.
Give measured growth for each item. Keep answers brief.
Answers are plain numbers, in %.

Report growth for every entry below.
1. COc1cc2c(cc1OC)C(C)N(S(N)(=O)=O)CC2 (stereo not given)
2. COc1cccc(-c2nn(-c3ccccc3)cc2-c2ccnc(NCCCNC(=O)c3ccccc3)c2)c1

Return:
1. 72.2
2. 23.8

I'm hoping you can list growth for every compound here, please.
1. N#C/C(=C\c1ccc(-c2ccccc2F)o1)c1nc(-c2ccco2)cs1
2. O=C1OC(Cc2ccccc2)C1c1ccccc1 (stereo not given)
3. Cc1ncc(C(=O)Nc2ccc(CN3CCN(C)CC3)c(C(F)(F)F)c2)cc1C#Cc1cnc(N)c2ccc(C#N)cc12

Return:
1: 91.2; 2: 84.7; 3: 13.2

====

System: OVCAR-8 ovarian
Assay comment: NCI-60 one-dose screen, 48 h
Experimental parameters: 10 µM unless noted
About 83,000 compounds went through this panel and 20% of them were active in at least one assay; those are over-represented in the sample as a whole. Calls of active or inactive are those of the source. The calls were made as follows: active = growth percent below 10; inactive = the rest.
Please state which outcome applies, choosing from yes (active), no (inactive)

1. [N-]=[N+]=NC(C(=O)O)c1ccccc1 (stereo unspecified) = no

Enquiry: Outcome? `CC(C)[C@]12O[C@H]1[C@@H]1O[C@]13[C@]1(O[C@H]1C[C@H]1C4=C(CC[C@@]13C)C(=O)OC4)[C@@H]2OC(=O)OC(C)(C)C`
Return: no

Enquiry: Per the assay record, what outcome was assigned to `CCOC(=O)Nc1cc(Cl)c([N+](=O)[O-])c(NC(=O)OCC)n1` ?
Return: no

Enquiry: Please let me know the test result on file for `Cc1cccc(N=C2c3cc([N+](=O)[O-])ccc3-c3c2cc([N+](=O)[O-])cc3[N+](=O)[O-])c1` .
Return: no

Enquiry: // return assay outcome for C=CC(O)CN1CC1CC (stereo unspecified)
Return: no

Enquiry: Any idea what this test logged for O=C1C=CC(=O)C2C1C1(Cl)C(Cl)=C(Cl)C2(Cl)C1(Cl)Cl (stereo unspecified) ?
Return: no

====

Could you please report measured growth for the items listed next?
System: HL-60(TB) leukemia
Assay comment: NCI-60 one-dose screen, 48 h (100 = growth as untreated, 0 = no growth, -100 = all killed)
Experimental parameters: 10 µM unless noted
Protocol: Growth inhibition of the HL-60(TB) human tumor cell line is measured as a screen for anti-cancer activity. Cells are grown in 96 well plates and exposed to the test compound for 48 hours. Compounds are tested at a single concentration, which is 10^-5 M for most compounds. The reported endpoint is percent growth (GI% or GIPRCNT), where numbers from 0 - 100% represent growth inhibition, and numbers from -100% - 0 represent cell death. For example, a value of 40 represents 60% growth inhibition. […]
About 83,000 compounds went through this panel and 20% of them were active in at least one assay; those are over-represented in the sample as a whole.
Give bare numbers, in %.

Solved cases (5 shown):
1. C=C[Si](OC(C)=O)(OC(C)=O)OC(C)=O = 94.3
2. COc1cccc(NC(=O)c2sc3nc4c(cc3c2N)CCCC4)c1 = 5.68
3. CC(C)(Cl)CCC1=C(Cl)C(=O)c2ccccc2C1=O = -10.1
4. CCCCN1CCN(c2ccc3nc(-c4ccc5nc(-c6ccc(OCC)c(OCC)c6)[nH]c5c4)[nH]c3c2)CC1 = 3.99
5. Cc1ccc2c(n1)C[C@H](C(C)(C)O)CC[C@H]2C = 103

State recorded growth for all listed molecules.
1. CC(=O)OC[C@H]1O[C@H](OC(C)=O)[C@H](NC(=O)/C=C/CCl)[C@@H](OC(C)=O)[C@@H]1OC(C)=O
2. C[C@@H](N)c1ccc(C(=O)Nc2ccnc3[nH]ccc23)cc1
3. CC(=O)OCC1CCC(COC(C)=O)CC1 (configuration not stated)
4. CC(/C=C1\SC(=S)N(CC(=O)NC(Cc2c[nH]c3ccccc23)C(=O)O)C1=O)=C\c1ccccc1 (configuration not stated)

Return:
[96.4, 67.5, 85.5, 100]

====

For each record, write down the corresponding growth.
System: DU-145 prostate
Assay comment: NCI-60 one-dose screen, 48 h (100 = growth as untreated, 0 = no growth, -100 = all killed)
Experimental parameters: 10 µM unless noted
About 83,000 compounds went through this panel and 20% of them were active in at least one assay; those are over-represented in the sample as a whole.
Numbers only, in %.

1. NC(=O)C(Br)CBr (stereo unspecified) = -28.2
2. CC(C)[C@]12O[C@H]1[C@@H]1O[C@]13[C@]1(O[C@H]1C[C@H]1C4=C(CC[C@@]13C)C(=O)OC4)[C@@H]2OC(=O)OC(C)(C)C = 8.08
3. S=P(N1CCCCCC1)(N1CC1)N1CC1 = 112
4. NC(Cc1ccc(O)cc1)C(=O)N/N=C/c1ccc(N(CCCl)CCCl)cc1 (stereo unspecified) = 69.2
5. CN=C(NN)NN = 111

Hi, could you look up growth for each item in my list?
1. N#Cc1ncc(/N=C/c2ccc(N(CCCl)CCCl)cc2)s1
2. C=CC(=O)NC(O)C(Cl)(Cl)Cl (stereo unspecified)

Return:
1. 49.2
2. 106

// for each compound below, give its growth
1. c1cnc2c(c1)ccc1ncccc12
2. O=CN1N=C(c2ccc3c(c2)OCO3)CC1c1sc(N(CCCl)CCCl)nc1Cl (stereo unspecified)

Return:
1. 107
2. 107

Go through the list and state growth for each entry.
1. COC[CH2][Hg][C]#[C][Hg][CH2]COC
2. O=C1NC(=O)C(CN2C(=O)C3(c4ccccc42)[C@H](Cl)C(=O)N3c2ccccc2)C(=O)N1 (stereo partly specified)

Return:
1. 87.6
2. 102

====

Tested on: HS 578T breast
Assay comment: NCI-60 one-dose screen, 48 h
Experimental parameters: 10 µM unless noted
This is part of a sample that, as a whole, favours compounds with a hit. Of some 83,000 tested, about 20% had one in any assay. Activity calls are given as the source filed them. How the source made its calls: active means growth percent below 10; inactive means the rest.
// one of Yes (active), No (inactive), no free text

Look over these answered cases.
1. CC(=O)C1C(=O)N(C)C(=O)N(C)C1=O = No
2. CCCCCCCCCCOc1ccc(C(=O)Oc2ccc(CSP3(=O)OCC4OC(n5ccc(=O)[nH]c5=O)C(F)C4OP(=O)(O)OCC4OC(n5cnc6c(N)ncnc65)C(F)C4O3)cc2)cc1 (stereo unspecified) = No

Enquiry: Recorded test call requested for CC1([N+](=O)[O-])COP(=O)(Nc2ccc(F)cc2)OC1 (stereo unspecified)
Return: No

Enquiry: Given `O=C1NC(=S)NC(=O)C1=Cc1ccccc1` , state the outcome it received in this test.
Return: No

Enquiry: Check the results log: what was the call for `C[C@]12CC[C@@H]3c4ccc(OC(=O)Cc5ccc(N(CCCl)CCCl)cc5)cc4CC[C@H]3[C@@H]1CC[C@@H]2OC(=O)Cc1ccc(N(CCCl)CCCl)cc1` ?
Return: No

Enquiry: Called result for `C=C=[CH][Sn]([c]1ccccc1)([c]1ccccc1)[c]1ccccc1`
Return: No

Enquiry: Field: outcome | Entry: `O=S(=O)(O)c1ccc(-c2ccc([As](=O)(O)O)cc2)cc1`
Return: No

Enquiry: Which outcome was assigned to `CCC[CH2][Sn]([CH2]CCC)([CH2]CCC)[O]C(=O)CC` in this test?
Return: Yes

Enquiry: Look up the recorded call for COc1c(O)c2c3c(c1OC)-c1ccccc1CC3N(C)CC2 (stereo unspecified) in this test.
Return: No
